Origin of measurements: the supplement of paper PMC3334620

- subject.of.test: Ybr033w (UniProt P38073)
- Sequence: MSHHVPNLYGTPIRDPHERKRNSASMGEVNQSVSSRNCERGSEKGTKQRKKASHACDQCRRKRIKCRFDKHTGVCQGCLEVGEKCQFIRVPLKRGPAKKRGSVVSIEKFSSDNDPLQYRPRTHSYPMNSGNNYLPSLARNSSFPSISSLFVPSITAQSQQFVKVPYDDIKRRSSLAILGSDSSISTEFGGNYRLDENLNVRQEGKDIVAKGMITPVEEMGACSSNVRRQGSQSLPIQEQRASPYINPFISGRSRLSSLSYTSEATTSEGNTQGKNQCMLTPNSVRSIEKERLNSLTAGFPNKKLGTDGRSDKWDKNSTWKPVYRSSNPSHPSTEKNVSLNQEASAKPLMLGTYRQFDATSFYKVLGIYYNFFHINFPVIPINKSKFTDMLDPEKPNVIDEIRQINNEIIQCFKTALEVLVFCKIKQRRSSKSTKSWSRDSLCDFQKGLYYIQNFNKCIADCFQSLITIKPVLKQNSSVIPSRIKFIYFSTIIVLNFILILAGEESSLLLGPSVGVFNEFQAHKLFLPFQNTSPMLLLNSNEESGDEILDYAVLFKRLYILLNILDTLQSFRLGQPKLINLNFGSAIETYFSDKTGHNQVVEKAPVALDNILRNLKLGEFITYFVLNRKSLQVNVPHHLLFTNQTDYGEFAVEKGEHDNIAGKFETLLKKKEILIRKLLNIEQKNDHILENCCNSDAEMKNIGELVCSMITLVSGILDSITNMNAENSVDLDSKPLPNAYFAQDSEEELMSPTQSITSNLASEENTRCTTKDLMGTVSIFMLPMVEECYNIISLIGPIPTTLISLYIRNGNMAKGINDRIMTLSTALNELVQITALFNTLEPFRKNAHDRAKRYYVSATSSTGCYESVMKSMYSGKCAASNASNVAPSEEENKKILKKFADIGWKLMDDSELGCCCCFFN
- protocol.description: PBM E-score (8-mer binding enrichment) (E-score (-0.5 to 0.5)); higher = stronger / more preferred TF binding
- condition.description: protein concentration: 200 nM; construct: GST-full length
Over roughly 33,000 sequences, “E-score (-0.5 to 0.5)” has its median near -0.012; the highest 2% begin near 0.29. The sample holds the highest values, similar sequences and a random draw of the others, so the mix is not that of the screen.
parameter.measured: PBM E-score

1) ACACTCAC | 0.0907
2) ATAAAAGG | -0.0365
3) AAGCCATA | 0.0179
4) GTAAACAC | 0.0587
5) GTAAACAA | 0.298
6) AAAAACAT | 0.21
7) CCGCGAGC | -0.194
8) GTAAAATA | 0.269
9) ATAAATAC | 0.211
10) ATAAATAT | 0.396
11) GATAGGAC | -0.188
